Entry source: PubChem BioAssay

assay: budding yeast growth modifiers under rapamycin – strain BY4716, OD600, 96 h, primary screen (AID 1091); also: test concentration not given here; settings: S. cerevisiae BY4716 + rapamycin, higher = more signal, called active from +8 up or from −8 down
# cutoff -0.03 applies to z-score; >= gives Y, < gives N

# compound, answerLabel
measured = [
    ("CCOc1cc(C(O)C2C=CC3C(=O)NC(=O)C3N2Nc2ccccn2)ccc1O (centres undefined)", "N"),
    ("CCOC(=O)C[C@H]1[C@H](OC(=O)Cc2ccc3c(c2)OCO3)[C@@H](NC(=O)c2ccccc2)c2cc(OCCCO)ccc2N1C(=O)c1ccc2ccccc2n1", "N"),
    ("COCCOC(=O)N1C(=O)[C@@]2(c3ccccc31)[C@H](c1ccccc1OCCO)N1[C@H](c3ccccc3)[C@H](c3ccccc3)OC(=O)[C@H]1[C@@H]2C(=O)N1CCc2cc(OC)c(OC)cc2C1", "Y"),
    ("O=C1N(CCS(=O)(=O)c2ccccc2)c2ccccc2[C@H]2OC(c3ccc(OCCCO)cc3)=N[C@@]12CCS(=O)(=O)c1ccccc1", "Y"),
    ("CC(C)(C)OC(=O)CC[C@@]1(C(=O)N2CCCCC2)N=C(c2ccc(OCCCO)cc2)O[C@@H]1c1ccccc1N=[N+]=[N-]", "N"),
    ("CC(C)CCC[C@@H](C)[C@H]1CC[C@@]2(C)C3=C(CC[C@]12C)[C@@]1(C)CC[C@H](OC(=O)c2ccc(N)cc2)C(C)(C)C1CC3 (some centres undefined)", "N"),
    ("COC(=O)c1ccc(OC)c(/C=C\\CC(CCc2ccccc2)OC(C)=O)c1 (centres undefined)", "N"),
    ("O=C1C2C=CC(C(O)c3ccccn3)N(Nc3ccccc3)C2C(=O)N1c1ccccc1 (centres undefined)", "Y"),
    ("O=C1NC(=O)C2C1C=CC(C(O)c1ccc(-c3ccccc3)s1)N2Nc1ccccn1 (centres undefined)", "Y"),
    ("COC(=O)c1c(CC[C@@H](CO)NC(=O)N[C@@H](C)Cn2cc(C3(O)CCCC3)nn2)oc(C(C)=O)c1C(=O)OC", "N"),
    ("COc1ccc(C#Cc2ccc3c(c2)[C@]2(C(=O)N3)[C@H](c3ccc(OCCO)cc3)N3[C@H](c4ccccc4)[C@H](c4ccccc4)OC(=O)[C@H]3[C@@H]2C(=O)N2CCN(c3ncccn3)CC2)cc1", "Y"),
    ("COCCOC(=O)N1C(=O)[C@@]2(c3cc(C#CCC(C(=O)OC)C(=O)OC)ccc31)[C@H](c1ccc(OCCO)cc1)N1[C@H](c3ccccc3)[C@H](c3ccccc3)OC(=O)[C@H]1[C@@H]2C(N)=O", "Y"),
    ("COc1cccc(C)c1NC(=O)O[C@H]1[C@H](OC(=O)Nc2ccccc2)[C@H](OC(=O)Nc2ccccc2)[C@@H](OC)O[C@@H]1CO", "Y"),
    ("CC(=O)NCCCC[C@@H]1NC(=O)[C@H]2C[C@@H](C(=O)NCCCCCN)[C@@H](c3cccc(OCCO)c3)N2C1=O", "N"),
]
